All values here come from paper PMC5402281.

Would you mind telling me the reported viability at 72 h, 20 µM of each entry?
Assay: in vitro
Assay type: cell-based
Conditions: African green monkey

>>> experimental_result("CCOC(=O)c1ccc2nc(C)cc(Nc3ccc(N4CCCCC4)cc3)c2c1 [Labio_17]")
"85%"

Let's switch to this compound now.
Query: Report viability at 72 h, 20 µM for Cc1ccccc1OCc1nc(-c2ccc(NC(=O)c3cccs3)cc2)no1 [Labio_16] please.
Response: 89%

* * *

Target: MtInhA:NADH binary complex (Mycobacterium tuberculosis, UniProt P9WGR1)
Construct: made in house
Sequence (P9WGR1 whole entry, looked up, one chain of several): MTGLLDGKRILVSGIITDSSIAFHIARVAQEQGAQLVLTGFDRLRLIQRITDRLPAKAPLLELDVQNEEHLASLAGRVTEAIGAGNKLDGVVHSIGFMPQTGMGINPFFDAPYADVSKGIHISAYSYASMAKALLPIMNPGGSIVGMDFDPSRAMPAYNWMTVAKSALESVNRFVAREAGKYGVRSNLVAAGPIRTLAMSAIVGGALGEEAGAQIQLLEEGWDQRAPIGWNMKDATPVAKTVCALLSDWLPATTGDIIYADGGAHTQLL
Assay: biochemical
Format: binding
Conditions: 30 °C
property name: pKd
Give bare numbers, as −log10 of the molar value.

Query: Report pKd for Cc1ccccc1OCc1nc(-c2ccc(NC(=O)c3cccs3)cc2)no1 please.
Response: 5.70
